Values were extracted from PubChem BioAssay AID1478.

molecular target: Cruzipain (Trypanosoma cruzi); experiment: qHTS Assay for Promiscuous and Specific Inhibitors of Cruzain (with detergent); details: purified cruzain, Z-FR-AMC fluorescence, 0.01% Triton; note: nearly all actives have a fitted effect of over 40% in size; note: potency is the fitted concentration of half-maximal effect
Out of some 200,000 compounds screened, about 860 (0.43%) were called active. The entries come from a sample that favours actives as a whole.
recorded_metric: Potency

Item: CCN1CCCC1CNc1ncnc2c1[nH]c1ccc(F)cc12 (stereo not given) | Potency: 25.1 µM (active)

Item: `CNc1nc(SC)nc(N(C#N)CC(=O)OC)n1` | Potency: 17.8 µM (active)

Item: `CCn1c(=N)c(C(=O)NCCCOC)cc2c(=O)n3cccc(C)c3nc21` | Potency: 31.6 µM (active)

Item: `Cc1cc(C(=O)COC(=O)CNC(=O)c2ccc(F)cc2)c(C)n1Cc1ccco1` | Potency: 14.1 µM (active)

Item: COc1ccc(Cl)cc1NC(=O)COC(=O)C(CC(C)C)N1C(=O)C2CC=CCC2C1=O (stereo not given) | Potency: 12.6 µM (active)

Item: `O=C1OC(/C=C/c2ccccc2)=NC/1=C/c1ccco1` | Potency: 3.98 µM (active)

Item: `c1ccc(CSc2nnc(-c3ccco3)c(-c3ccco3)n2)cc1` | Potency: 14.1 µM (active)

Item: `O=C(OCN1C(=O)c2ccccc2C1=O)/C(=C\c1ccco1)NC(=O)c1ccccc1` | Potency: 0.316 µM (active)

Item: `CCOc1ccccc1NC(=O)CSc1ncc(S(=O)(=O)c2ccc(C(C)(C)C)cc2)c(=O)[nH]1` | Potency: 28.2 µM (active)

Item: CC(=O)NC1=NN(C(C)=O)C(C)(c2ccc(Cl)s2)S1 (stereo not given) | Potency: 28.2 µM (active)

* * *

molecular target: Cruzipain (Trypanosoma cruzi); assay: qHTS Assay for Promiscuous and Specific Inhibitors of Cruzain (with detergent); conditions: purified cruzain, Z-FR-AMC fluorescence, 0.01% Triton; note: nearly all actives have a fitted effect of over 40% in size;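 for max response, negative = inhibition: plate controls were neutral wells for no effect and buffer without enzyme for full effect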
Among all 200,000 compounds or so, about 860 (0.43%) were called active. The full list was thinned out, with actives kept by preference.
Can you tell me max response, negative = inhibition for the items I'm about to list?
Could you give me the number in %? Just the number is fine.

Item: `CCN(CC)S(=O)(=O)c1nnc(NC(=O)COc2ccccc2Cl)s1` | max response, negative = inhibition: -2.1

Item: `COc1ccc(Cc2nc3ccc(C(=O)NCc4ccc(OC)cc4OC)cc3o2)cc1` | max response, negative = inhibition: -5.34

Item: `O=C(NCc1ccccn1)c1cc(-c2ccccc2Cl)on1` | max response, negative = inhibition: -2.6

Item: `Cc1ccc(CNS(=O)(=O)c2ccc(C(=O)N(C)C)s2)cc1` | max response, negative = inhibition: -0.386

Item: COC(=O)C(C)N(C#N)c1nc(C)nc(C)n1 (stereo not drawn) | max response, negative = inhibition: 4.3

Item: `CCOc1ccc(N(C)S(=O)(=O)c2cc(-c3cnc(C)o3)ccc2OC)cc1` | max response, negative = inhibition: -8.69

Item: CC(=O)c1ccc(NC(c2ccc(F)cc2)c2nnc(-c3ccccc3)o2)cc1 (stereo not drawn) | max response, negative = inhibition: -5.26

Item: `NC(=S)N/N=C/c1coc2cc(Cl)ccc2c1=O` | max response, negative = inhibition: -8.88

Item: O=C(CC1N=C2c3ccccc3N=C(SCc3ccc(F)cc3)N2C1=O)NCc1cccs1 (stereo not drawn) | max response, negative = inhibition: -4.42

Item: `Cc1cc(C)nc(N(C#N)CC(=O)Nc2ccccc2)n1` | max response, negative = inhibition: 7.7

Item: `CCOc1ccccc1NC(=O)CCn1cnnn1` | max response, negative = inhibition: 2.1

Item: `O=S(=O)(c1ccc2nc(NCc3ccccc3Cl)ccc2c1)N1CCCCC1` | max response, negative = inhibition: -1.7

Item: `CCN(CC)CCNc1ncnc2c1cnn2-c1cc(Cl)ccc1C` | max response, negative = inhibition: 0.243

Item: `COc1cccc(NC(=S)NCCCN2CCOCC2)c1` | max response, negative = inhibition: -2.47

Item: `CCOc1ccc(/C=N/NC(N)=S)cc1` | max response, negative = inhibition: -18.1

Item: `O=C(NCc1ccc2c(c1)CCN2C(=O)c1ccccc1)c1ccccc1` | max response, negative = inhibition: 1.91

Item: `O=S(=O)(NCCc1nnc2ccc(SCc3ccc(Cl)cc3Cl)nn12)c1ccccc1` | max response, negative = inhibition: -7.61

Item: `COc1ccc(OC)c(-n2nnc(-c3nc(-c4cc(OC)c(OC)c(OC)c4)no3)c2C)c1` | max response, negative = inhibition: 2.73

Item: `CCOC(=O)c1ccc(-n2c(CCC(=O)O)ccc2-c2ccccc2)cc1` | max response, negative = inhibition: -12

Item: `Cc1oc2ccc(O)c(CN3CCCCC3)c2c1C(=O)Nc1cccc(C(F)(F)F)c1` | max response, negative = inhibition: -4.76

Item: `COc1cc(NC(=O)Nc2ccc(C)cc2)cc([N+](=O)[O-])c1` | max response, negative = inhibition: -3.61

Item: CCOc1ccc(CNC(=O)C2CCCN(S(=O)(=O)N(CC)c3ccc(OCC)cc3)C2)cc1 (stereo not drawn) | max response, negative = inhibition: 3.48

Item: `Clc1ccc(-c2nnc(SCc3nc4ccccc4s3)o2)cc1` | max response, negative = inhibition: -2.22

* * *

Can you tell me max response, negative = inhibition for the items I'm about to list?
biological target: Cruzipain (Trypanosoma cruzi) (UniProt P25779); test: qHTS Assay for Promiscuous and Specific Inhibitors of Cruzain (with detergent); conditions: purified cruzain, Z-FR-AMC fluorescence, 0.01% Triton; note: nearly all actives have a fitted effect of over 40% in size;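 for max response, negative = inhibition: plate controls were neutral wells for no effect and buffer without enzyme for full effect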
Sequence (P25779 123-467 limits assumed): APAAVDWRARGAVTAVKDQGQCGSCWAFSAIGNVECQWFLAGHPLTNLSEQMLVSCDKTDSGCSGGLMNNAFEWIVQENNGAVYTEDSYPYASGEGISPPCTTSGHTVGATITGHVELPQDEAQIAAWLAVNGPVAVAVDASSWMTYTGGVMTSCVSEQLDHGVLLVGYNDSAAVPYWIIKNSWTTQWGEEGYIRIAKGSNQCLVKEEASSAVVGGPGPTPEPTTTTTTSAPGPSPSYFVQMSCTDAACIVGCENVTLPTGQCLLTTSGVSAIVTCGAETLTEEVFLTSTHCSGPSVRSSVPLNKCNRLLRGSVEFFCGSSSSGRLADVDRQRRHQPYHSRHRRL
About 860 (0.43%) of roughly 200,000 compounds were called active. The sample as a whole holds a higher share of actives than the screen did.
Could you give me the number in %? Just the number is fine.

Item: `CCCCCn1c(=O)[nH]c2cc(C(=O)Nc3ccc(F)cc3)ccc2c1=O` | max response, negative = inhibition: -0.504

Item: `O=C(CS(=O)(=O)c1cccc2nsnc12)N1CCN(c2cccc(Cl)c2)CC1` | max response, negative = inhibition: -2.29

Item: `O=S(=O)(c1ccccc1)c1nc(-c2ccc(Cl)cc2Cl)oc1N1CCCCC1` | max response, negative = inhibition: -15.9

Item: `CCOC(=O)N1CCN(C(=O)c2cc3c(ccc4ccccc43)oc2=O)CC1` | max response, negative = inhibition: -4.28

Item: `COc1cc(NC(=O)CSc2nc3nc(C)c(Cc4ccc(C)cc4)c(C)n3n2)cc(OC)c1OC` | max response, negative = inhibition: -4.19

Item: `CCOc1cccc(C(=O)Nc2nnc(S(=O)(=O)N(C)c3ccc(C)cc3)s2)c1` | max response, negative = inhibition: -2.64

Item: `CC(=O)c1ccc(S(=O)(=O)N2CCC(Oc3ccc(-n4cnnn4)cc3)CC2)cc1` | max response, negative = inhibition: 0.367

Item: `Nc1nc(SCc2ccccc2Cl)n[nH]1` | max response, negative = inhibition: 1.94

Item: `O=C(CNC(=O)c1ccco1)OCC(=O)c1ccccc1` | max response, negative = inhibition: -1.99

Item: `Cc1cccc(NC(=O)/C(=C\c2ccco2)NC(=O)c2ccccc2)c1` | max response, negative = inhibition: -5.18

Item: `COc1ccc(OC)c(CNC(=O)Cn2nc(C)c3c(C)n(-c4ccccc4)nc3c2=O)c1` | max response, negative = inhibition: -2.6

Item: `COCCn1c(SCC(=O)c2cc(C)ccc2C)nc2cc(C(=O)NC3CCCC3)ccc2c1=O` | max response, negative = inhibition: -0.0872

Item: `Fc1ccc2[nH]c3c(N4CCSCC4)ncnc3c2c1` | max response, negative = inhibition: -6.83

Item: CCOc1ccc(C(NC(=O)c2cc(OC)c(OC)c(OC)c2)c2cc(Cl)c3cccnc3c2O)cc1 (stereo unspecified) | max response, negative = inhibition: 1.88

Item: `CCc1ccccc1NC(=O)c1cnn(-c2ccc(F)cc2)c1C1CCNCC1` | max response, negative = inhibition: -1.82

Item: `O=C(Nc1nnc(SCc2ccccc2)s1)c1ccco1` | max response, negative = inhibition: 0.832

Item: Cc1nn(C(C)C(=O)NCCc2ccccc2)c(=O)c2c1sc1ccccc12 (stereo unspecified) | max response, negative = inhibition: -6.56

Item: `CCc1ccc(N(CC)C(=O)CCn2cnc3onc(-c4ccc(F)cc4)c3c2=O)cc1` | max response, negative = inhibition: -2.73

Item: `Cc1cccc(NC(=O)CSc2ncc(-c3ccccc3)[nH]2)c1C` | max response, negative = inhibition: -4.22

Item: `COc1cc(OC)c(NC(=O)c2cnc(N3CCCC3)nc2C)cc1Cl` | max response, negative = inhibition: -6.84

Item: `COc1ccc(C)cc1-n1nnnc1SCC(=O)c1cc(C)n(Cc2ccco2)c1C` | max response, negative = inhibition: -1.61

* * *

biological target: Cruzipain (Trypanosoma cruzi); assay: qHTS Assay for Promiscuous and Specific Inhibitors of Cruzain (with detergent); conditions: purified cruzain, Z-FR-AMC fluorescence, 0.01% Triton; note: nearly all actives have a fitted effect of over 40% in size;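 for max response, negative = inhibition: plate controls were neutral wells for no effect and buffer without enzyme for full effect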
Screen size: about 200,000 compounds; about 860 (0.43%) were called active. Shown is part of a subset that was picked to be rich in actives.
recorded_metric: max response, negative = inhibition (%)
Could you give me the number in %? Just the number is fine.

Item: `Cc1ccccc1CN1CCC(CNC(=O)c2c(C)oc3ncnc(N4CCCCC4)c23)CC1` | max response, negative = inhibition: 1.4

Item: `COc1cc(NC(=O)c2cc(C3CC3)nc3c2c(C)nn3-c2ccccc2)cc(OC)c1` | max response, negative = inhibition: -4.38

Item: `COc1ccc(Cl)cc1NC(=O)CNc1ccccc1F` | max response, negative = inhibition: -7.98

Item: `O=C(NCc1ccccc1Cl)C1=Cc2cc(Br)ccc2OC1` | max response, negative = inhibition: -4.23

Item: `COc1cc(-c2noc(-c3ccc(N4CCCC4)c([N+](=O)[O-])c3)n2)cc(OC)c1OC` | max response, negative = inhibition: -7.32

Item: `Cc1ccc(NC(=O)c2cc(S(=O)(=O)NCCC3=CCCCC3)ccc2F)cc1C` | max response, negative = inhibition: 1.53

Item: `CCCCCn1c(CCCNC(=O)c2ccccc2OC)nc2ccccc21` | max response, negative = inhibition: -1.13

Item: `Cc1cc2c(cc3c(SCc4cccc(Cl)c4)nnc(C)n32)o1` | max response, negative = inhibition: -4.57

Item: `c1cncc(-c2nc(N3CCNCC3)c3ccccc3n2)c1` | max response, negative = inhibition: -1.38

Item: O=C(C1COc2ccccc2O1)N(Cc1cccnc1)c1nc2c(F)cc(F)cc2s1 (configuration not stated) | max response, negative = inhibition: -3.06

Item: `O=C(CSc1n[nH]c(-c2ccccc2)n1)N1CCCCC1` | max response, negative = inhibition: 2.8

Item: `COc1cc(OC)cc(C(=O)Nc2cc3nn(-c4ccccc4)nc3cc2Cl)c1` | max response, negative = inhibition: 6.82

Item: `Cc1ccccc1OCc1nc2c3cnn(-c4ccccc4F)c3ncn2n1` | max response, negative = inhibition: -0.812

Item: `CCN(c1ncnc2c1cnn2-c1ccc(C)cc1)C1CCCCC1` | max response, negative = inhibition: 1.62

Item: `Cc1ccc(Cn2c(CNC(=O)Cc3cccc(C)c3)nc3cccnc32)cc1` | max response, negative = inhibition: -1.98

Item: `Cc1ccc(C)c(Cn2c(CCCNC(=O)C3CCCCC3)nc3ccccc32)c1` | max response, negative = inhibition: -3.31

Item: `O=C(NCCCO)C(=O)Nc1c2c(nn1-c1ccc(F)cc1)CSC2` | max response, negative = inhibition: -6.19

Item: `O=C(CCc1nc(CN2CCN(S(=O)(=O)c3ccc(Br)cc3)CC2)no1)N1CCCCC1` | max response, negative = inhibition: -0.641

Item: `CCC(=O)NCCc1nc2ccccc2n1CC` | max response, negative = inhibition: 4.89

Item: `Cc1cccc(C(=O)NCCCN2CCCC2=O)c1` | max response, negative = inhibition: 6.06

Item: CC(NC(=O)CCc1cn(Cc2ccccc2Cl)c2ccccc12)c1ccccc1 (configuration not stated) | max response, negative = inhibition: -2.02

Item: O=C1CCCc2cc(S(=O)(=O)N3CCCC(C(=O)NCc4ccccc4)C3)ccc2N1 (configuration not stated) | max response, negative = inhibition: -1.43
